# Assay type: in vivo, Sprague Dawley rats
# reported conditions: male, Sprague Dawley, rat, plasma, po, 100 mg/kg
readout kind: AUC(0-t)
# output: numeric value plus its unit

Prompt line: Would you kindly share the measured AUC(0-t) for Cc1cc(O)c2c(c1)C(=O)c1cc(O)cc(O)c1C2=O ?
Response line: 2.37 µg·h/mL

====

# Type: in vivo, Sprague Dawley rats
# reported conditions: male, Sprague Dawley, rat, plasma, po, 100 mg/kg
readout kind: Cmax (ng/mL)
Answers are plain numbers, in ng/mL.

Prompt line: Would you kindly share the measured Cmax for Cc1cc(O)c2c(c1)C(=O)c1cc(O)cc(O)c1C2=O [EMO, Emodin] ?
Response line: 274

====

# Type: in vivo, Sprague Dawley rats
# reported conditions: male, Sprague Dawley, rat, plasma, po, 100 mg/kg
readout kind: MRT inf (h)
Numbers only, in h.

Prompt line: Would you kindly share the measured MRT inf for Cc1cc(O)c2c(c1)C(=O)c1cc(O)cc(O)c1C2=O ?
Response line: 5.9
